Reported values of ΔTm at 10 µM for individual entries
- target or system: CHEK2A (Homo sapiens, UniProt O96017)
- Construct: purchased in-house DSF kinase panel (SGC-style construct names; the trailing letter is the construct ID)
- Sequence (O96017 210-531): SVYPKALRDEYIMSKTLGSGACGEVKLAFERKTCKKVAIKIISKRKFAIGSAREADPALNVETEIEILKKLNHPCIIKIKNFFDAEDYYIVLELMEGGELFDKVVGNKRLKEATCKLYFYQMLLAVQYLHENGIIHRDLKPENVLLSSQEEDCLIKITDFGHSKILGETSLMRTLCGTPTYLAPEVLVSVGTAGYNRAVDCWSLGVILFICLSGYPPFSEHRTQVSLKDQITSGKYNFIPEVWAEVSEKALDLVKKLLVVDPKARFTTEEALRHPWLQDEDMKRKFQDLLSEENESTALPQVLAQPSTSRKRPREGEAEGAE
- assay text: DSF Tm panel
- Format: binding
- test context: 10 μM compound
Note: unit °C is implicit; provide only the numeric part.

Below, 5 molecules whose answers are already recorded.
> print(dat)
                                   molecule  readout.value
1  Cc1cc(Cl)ccc1CNC(=O)Nc1ccc2cc1OCCOCCNc1ccn3ncc-2c3n1 [compound 23]            5.7
2  O=C(NCc1ccccc1)Nc1ccc2cc1OCCOCCNc1ccn3ncc-2c3n1 [compound 16]            6.5
3  O=C(NCc1ccccc1C(F)(F)F)Nc1ccc2cc1OCCOCCNc1ccn3ncc-2c3n1 [compound 27]            9.9
4  O=C(NCc1cccc(Cl)c1)Nc1ccc2cc1OCCOCCNc1ccn3ncc-2c3n1 [compound 18]            3.6
5  O=C(NCc1ccc(Cl)cc1)Nc1ccc2cc1OCCOCCNc1ccn3ncc-2c3n1 [compound 19]            4.5

Now for another entry.
Enquiry: Send back CHEK2A (Homo sapiens, UniProt O96017) ΔTm at 10 µM of Cc1cc(Br)ccc1CNC(=O)Nc1ccc2cc1OCCOCCNc1ccn3ncc-2c3n1 [compound 24] only.
Return: 8.6
